# System: COLO 205 colon
# test_name: NCI tumour cell line growth inhibition, 48 h
Where a SMILES comes first, the peptide text is derived from it. [ ]: non-standard residue; d: D form. The star is where a group is joined. Boc = CC(C)(C)OC(=O)*; Lac = C[CH](O)C(=O)O; OBn = c1ccc(CO*)cc1
property_measured: TGI

# compound, target_or_test_system, property_measured, observed_result
measured = [
    ("Cc1ccc(Nc2nc(=O)c3c4ccccc4n(C(=O)OC(C)(C)C)c3s2)cc1", "COLO 205 colon", "TGI", "> 100 µM"),
    ("CC1(C)OC(=O)C(=Cc2ccc(O)cc2)C(=O)O1", "COLO 205 colon", "TGI", "> 100 µM"),
    ("C=C(CNCCO)[C@@H]1CC[C@]2(CO)CC[C@]3(C)[C@H](CC[C@@H]4[C@@]5(C)CCC(N)C(C)(C)[C@@H]5CC[C@]43C)[C@@H]12 (stereo partly drawn)", "COLO 205 colon", "TGI", "3.35 µM"),
    ("N#CC(C#N)=c1ccc(=C2NCC3CCCN23)cc1 (stereo not drawn)", "COLO 205 colon", "TGI", "> 100 µM"),
    ("NC1CCC(Nc2nc(NCc3ccc(-c4ccco4)nc3)c3ncn(C4CCCC4)c3n2)CC1 (stereo not drawn)", "COLO 205 colon", "TGI", "0.0314 µM"),
    ("COc1cccc(-c2nc3ccccc3c(=O)[nH]2)c1", "COLO 205 colon", "TGI", "> 100 µM"),
    ("Cc1cc(=O)[nH]c2cc3oc4ccccc4c3cc12", "COLO 205 colon", "TGI", "> 100 µM"),
    ("CCc1ccc2c(c1)C(=O)c1c-2n(CCCBr)c(=O)c2cc([N+](=O)[O-])ccc12", "COLO 205 colon", "TGI", "> 50 µM"),
    ("CC(C)=CCCc1c(C)ccc2c1C(=O)C(=O)C(C(C)C)=C2", "COLO 205 colon", "TGI", "> 22 µM"),
    ("COc1ccc(C2=CSc3cc(Cl)c(C)cc3S(=O)(=O)N2C(C)=O)cc1", "COLO 205 colon", "TGI", "> 100 µM"),
    ("CN1CCc2cc3c(c4c2C1C(O)c1ccccc1-4)OCO3 (stereo not drawn)", "COLO 205 colon", "TGI", "> 100 µM"),
    ("CSC(=N/C=C/c1ccccc1)SC", "COLO 205 colon", "TGI", "> 100 µM"),
    ("C=Cc1nc2c(Cl)ncnc2n1Cc1ccccc1", "COLO 205 colon", "TGI", "3.08 µM"),
    ("Nn1c(CCCCCCCCc2nnc(COc3ccc(Cl)cc3Cl)n2N)nnc1COc1ccc(Cl)cc1Cl", "COLO 205 colon", "TGI", "70 µM"),
    ("CC(=O)Nc1oc(C)c(C)c1S(=O)(=O)c1ccc(Cl)cc1", "COLO 205 colon", "TGI", "> 100 µM"),
    ("C1=CC2(C=CC13O[C@H](C1CCCCC1)[C@@H](C1CCCCC1)O3)O[C@H](C1CCCCC1)[C@@H](C1CCCCC1)O2", "COLO 205 colon", "TGI", "> 50 µM"),
    ("O=c1cc(-c2cccc(O)c2)[nH]c2cc3c(cc12)OCO3", "COLO 205 colon", "TGI", "9.32 µM"),
    ("COc1ccc(-c2cc(=O)c3ccc(O)cc3o2)c(OC)c1OC", "COLO 205 colon", "TGI", "> 100 µM"),
    ("COc1c2ccoc2c(/C=C/C=O)c2oc(-c3ccccc3)cc(=O)c12", "COLO 205 colon", "TGI", "> 100 µM"),
    ("C=C1C[C@@H]2CC[C@@]34CC5O[C@H]6C(O[C@H]7CC[C@H](CC(=O)O[C@@H]8[C@@H](C)[C@@H]9O[C@@H]%10C[C@]%11(C[C@@H]%12O[C@]%13(C[C@H](C)[C@@H]%14O[C@@H]%15CC(C(O)CO)O[C@@H]%15C[C@@H]%14O%13)C[C@H](C)[C@@H]%12O%11)O[C@@H]%10C[C@@H]9O[C@H]8CC8O[C@@H](CC[C@@H]1O2)C[C@@H](C)C8(O)CO)O[C@@H]7[C@@H]6O3)[C@H]5O4 (stereo partly drawn)", "COLO 205 colon", "TGI", "> 1 µM"),
    ("CC(=O)c1cccc(Nc2nc3ccccc3c3occc23)c1", "COLO 205 colon", "TGI", "> 100 µM"),
    ("CC1=NN(c2nc(N)nc(/C(C#N)=C/c3ccccc3O)n2)C(C)(C)C1", "COLO 205 colon", "TGI", "31.5 µM"),
    ("S=C1NCCN1", "COLO 205 colon", "TGI", "> 100 µM"),
    ("COc1ccc(-n2/c(=N/C(=S)N(C)C)ss/c2=N\\C(=S)N(C)C)cc1", "COLO 205 colon", "TGI", "> 100 µM"),
    ("CC1(C)CCc2ccc(OCCC(=O)O)cc2O1", "COLO 205 colon", "TGI", "> 100 µM"),
    ("CC1OC(OC2C(O[C@H]3CC[C@@H]4C(=CC[C@@H]5[C@@]4(C)C(=O)C[C@]4(C)[C@@H]([C@H](C)CC[C@@H](O)C(C)(C)O)CC[C@@]54C)C3(C)C)OC(CO)C(O)C2O)C(O)C(O)C1O (stereo partly drawn)", "COLO 205 colon", "TGI", "> 100 µM"),
    ("COc1cc2cnc3c4cc(OC(C)C)c(OC)cc4ccc3c2cc1OC", "COLO 205 colon", "TGI", "> 100 µM"),
    ("COc1cc2c(c(OC)c1O)C(=O)C(OC)C(c1ccc(O)c(O)c1)O2 (stereo not drawn)", "COLO 205 colon", "TGI", "> 82.8 µM"),
    ("O=[N+]([O-])c1cnc(Sc2ccncn2)s1", "COLO 205 colon", "TGI", "3.35 µM"),
    ("CC(OC(=O)C(Cc1ccccc1)NC(=O)C(Cc1ccccc1)NC(=O)OC(C)(C)C)C(=O)OCc1ccccc1 (stereo not drawn) (Boc-Phe-Phe-[Lac]-OBn; configuration not given here)", "COLO 205 colon", "TGI", "> 100 µM"),
    ("O=C(Nc1ccccc1)OCCN=C1c2ccccc2C(Br)C(Br)c2ccccc21 (stereo not drawn)", "COLO 205 colon", "TGI", "13 µM"),
    ("COc1ccc2c(c1)CC[C@@H]1[C@@H]2CC[C@]2(C)C(=O)/C(=C/c3ccc(N(C)C)cc3)C[C@@H]12", "COLO 205 colon", "TGI", "> 100 µM"),
    ("CNC(=O)c1ccccc1Nc1nc(Nc2ccc(N3CCOCC3)cc2OC)ncc1Cl", "COLO 205 colon", "TGI", "0.59 µM"),
    ("CC(C)=C1C(=O)C[C@]2(C)C[C@H]3O[C@]3(C)CC[C@@H]3O[C@@]3(C)CC[C@@H]12", "COLO 205 colon", "TGI", "> 50 µM"),
    ("CC(=O)[O][Hg][c]1c(N)c(C)cc(C)c1F", "COLO 205 colon", "TGI", "3.53 µM"),
    ("O=C(O)c1cc(C(=O)O)cc(N2C(=O)c3ccccc3C2=O)c1", "COLO 205 colon", "TGI", "> 100 µM"),
    ("Nc1ccccc1-c1noc(=O)[nH]1", "COLO 205 colon", "TGI", "> 100 µM"),
    ("Oc1ccc(Cl)cc1-c1cc(-c2ccccc2Cl)[nH]n1", "COLO 205 colon", "TGI", "> 100 µM"),
]

---

# System: OVCAR-5 ovarian
# test_name: NCI tumour cell line growth inhibition, 48 h
Measured GI50 values are reported for all entries that follow.
property_measured: GI50

# compound, property_measured, observed_result
records = [
    ("Cn1ccnc1C(=O)/C=C/c1ccc(CC(=O)Nc2ccc(Br)cc2)cc1", "GI50", "2.74 µM"),
    ("CC1(C)COC(c2ccc(C(F)(F)F)cc2C(O)c2ccc3ccccc3c2)=N1 (centres undefined)", "GI50", "> 100 µM"),
    ("COc1ccc2c(c1)C(=O)/C(=C/c1ccc(OCC(=O)Nc3nccs3)cc1)O2", "GI50", "1.79 µM"),
    ("COc1ccc(C2=CSc3cc(Cl)c(C)cc3S(=O)(=O)N2C(C)=O)cc1", "GI50", "52.7 µM"),
    ("C=C(CNCCO)[C@@H]1CC[C@]2(CO)CC[C@]3(C)[C@H](CC[C@@H]4[C@@]5(C)CCC(N)C(C)(C)[C@@H]5CC[C@]43C)[C@@H]12 (some centres undefined)", "GI50", "5.08 µM"),
    ("C=C1C(=O)[C@@]23CC[C@H]4[C@@](C)(CCC[C@@]4(C)C(=O)OC)[C@@H]2CC[C@]1(O)C3", "GI50", "3.95 µM"),
    ("O=C(Nc1ccc(I)cc1)c1cc([N+](=O)[O-])ccc1O", "GI50", "27.9 µM"),
    ("COc1cc(C(=O)/C=C/c2sc(Cl)nc2Cl)cc(OC)c1OC", "GI50", "1.72 µM"),
    ("COc1c2ccoc2c(/C=C/C=O)c2oc(-c3ccccc3)cc(=O)c12", "GI50", "22.3 µM"),
]

These measurements were taken from PubChem BioAssay (NCI).
